target: endogenously expressed human MSR1 on PMA-treated THP-1 cells (human) (UniProt P21757); assay: cell-based or functional assay
Sequence (P21757 whole entry): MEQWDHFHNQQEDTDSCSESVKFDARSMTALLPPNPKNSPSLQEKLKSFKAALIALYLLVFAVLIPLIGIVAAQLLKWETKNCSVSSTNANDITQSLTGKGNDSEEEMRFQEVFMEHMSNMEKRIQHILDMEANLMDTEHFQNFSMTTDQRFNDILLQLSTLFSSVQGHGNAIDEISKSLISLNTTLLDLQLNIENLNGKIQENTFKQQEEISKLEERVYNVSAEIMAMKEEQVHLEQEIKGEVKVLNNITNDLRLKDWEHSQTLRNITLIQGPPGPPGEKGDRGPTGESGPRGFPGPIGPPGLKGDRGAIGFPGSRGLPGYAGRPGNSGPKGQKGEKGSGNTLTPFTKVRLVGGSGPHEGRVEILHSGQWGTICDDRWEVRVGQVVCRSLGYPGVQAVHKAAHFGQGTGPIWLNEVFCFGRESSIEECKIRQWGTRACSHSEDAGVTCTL
readoutKind: % Internalization

# % Internalization of H1H27739P-N297Q (antibody, human IgG1, V domains shown) VH: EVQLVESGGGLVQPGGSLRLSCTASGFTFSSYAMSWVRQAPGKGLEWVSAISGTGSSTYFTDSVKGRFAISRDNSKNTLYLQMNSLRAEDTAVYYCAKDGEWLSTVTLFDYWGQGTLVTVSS VL: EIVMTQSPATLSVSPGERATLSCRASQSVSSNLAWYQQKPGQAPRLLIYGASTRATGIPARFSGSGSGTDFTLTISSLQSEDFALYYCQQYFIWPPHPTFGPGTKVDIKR = 71.6%

Form: binder = H1H27747P-N297Q (antibody, human IgG1, V domains shown) VH: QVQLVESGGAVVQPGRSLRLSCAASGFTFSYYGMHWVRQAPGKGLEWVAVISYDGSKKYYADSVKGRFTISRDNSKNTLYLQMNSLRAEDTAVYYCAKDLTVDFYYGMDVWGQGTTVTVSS VL: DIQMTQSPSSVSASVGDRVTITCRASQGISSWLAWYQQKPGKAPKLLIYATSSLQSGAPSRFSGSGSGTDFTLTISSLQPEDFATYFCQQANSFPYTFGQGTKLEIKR ; % Internalization = 58.2%

% Internalization reported for this binder H1H21234N-N297Q (antibody, human IgG1, V domains shown) VH: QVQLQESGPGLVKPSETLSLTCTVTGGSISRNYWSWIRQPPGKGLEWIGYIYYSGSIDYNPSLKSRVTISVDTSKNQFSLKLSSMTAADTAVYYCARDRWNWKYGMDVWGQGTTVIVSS VL: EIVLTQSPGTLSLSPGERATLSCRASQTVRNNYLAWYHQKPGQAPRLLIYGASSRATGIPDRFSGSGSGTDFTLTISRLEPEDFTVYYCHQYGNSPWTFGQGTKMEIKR : 13.3%
